Tested on: Human immunodeficiency virus 2
test-details: Antiviral activity against HIV2 ROD in human MT4 cells assessed as protection against virus-induced cytopathogenicity by MTT assay
Assay type: functional, organism-based
Set-up: concentration or dose not given beside the values
quantity-kind: Activity (%)

* S=C(Nc1ccccc1)Nc1ccc(OCc2n[nH]c(=S)n2-c2ccccc2)cc1 | 4.5
* C=CCNC(=S)Nc1ccc(OCc2n[nH]c(=S)n2C)cc1 | 3
* CCNC(=S)Nc1ccc(OCc2n[nH]c(=S)n2CC)cc1 | 8
* CNC(=S)Nc1ccc(OCc2n[nH]c(=S)n2C)cc1 | 1
* CCCCCCNC(=S)Nc1ccc(-c2n[nH]c(=S)n2CCCCCC)cc1 | 1
* CCNC(=S)Nc1ccc(OCc2n[nH]c(=S)n2C)cc1 | 2

* * *

Tested on: Coxsackievirus B4
test-details: Antiviral activity against Coxsackie virus B4 in human HeLa cells assessed as inhibition of virus-induced cytopathogenicity
Assay type: functional
conditions: Enterovirus B
quantity-kind: MIC

* CCNC(=S)Nc1ccc(OCc2n[nH]c(=S)n2-c2ccccc2)cc1 | > 80 µg/mL
* CCn1c(COc2ccc(NC(=S)NC)cc2)n[nH]c1=S | > 80 µg/mL
* C=CCNC(=S)Nc1ccc(-c2n[nH]c(=S)n2CCCCCC)cc1 | > 16 µg/mL
* Cn1c(COc2ccc(NC(=S)Nc3ccccc3)cc2)n[nH]c1=S | > 400 µg/mL
* CCNC(=S)Nc1ccc(-c2n[nH]c(=S)n2-c2ccccc2)cc1 | > 80 µg/mL
* C=CCNC(=S)Nc1ccc(OCc2n[nH]c(=S)n2CC)cc1 | > 80 µg/mL
* C=CCNC(=S)Nc1ccc(OCc2n[nH]c(=S)n2C)cc1 | > 80 µg/mL
* NC(=O)c1ncn([C@@H]2O[C@H](CO)[C@@H](O)[C@H]2O)n1 | 240 µg/mL
* C=CCNC(=S)Nc1ccc(-c2n[nH]c(=S)n2-c2ccccc2)cc1 | > 400 µg/mL
* Nc1ccc(OCc2n[nH]c(=S)n2-c2ccccc2)cc1 | > 400 µg/mL
* S=C(Nc1ccccc1)Nc1ccc(-c2n[nH]c(=S)n2-c2ccccc2)cc1 | > 80 µg/mL

* * *

test-details: Cytotoxicity against human HeLa cells
Format: cell-based
Recorded MCC for the following molecules
quantity-kind: MCC (µg/mL)

- C=CCNC(=S)Nc1ccc(OCc2n[nH]c(=S)n2CC)cc1: 400
- S=C(Nc1ccccc1)Nc1ccc(-c2n[nH]c(=S)n2-c2ccccc2)cc1: 80
- CCn1c(COc2ccc(NC(=S)NC)cc2)n[nH]c1=S: 400
- C=CCNC(=S)Nc1ccc(-c2nnc(SCc3ccc(Cl)cc3Cl)n2-c2ccccc2)cc1: 80
- C=CCn1c(COc2ccc(NC(=S)NC)cc2)n[nH]c1=S: 400
- Cn1c(-c2ccc(NC(=S)Nc3ccccc3)cc2)n[nH]c1=S: 80
- CCn1c(COc2ccc(NC(=S)Nc3ccccc3)cc2)n[nH]c1=S: 400

* * *

Recorded MIC for the following compounds
Tested on: Human alphaherpesvirus 2
test-details: Antiviral activity against HSV2 G in human HEL cells assessed as reduction of virus-induced cytopathogenicity
Format: functional
conditions: Human alphaherpesvirus 2, G
quantity-kind: MIC

• Cn1c(COc2ccc(NC(=S)Nc3ccccc3)cc2)n[nH]c1=S = > 80 µg/mL
• CCNC(=S)Nc1ccc(-c2n[nH]c(=S)n2-c2ccccc2)cc1 = > 3.2 µg/mL
• CCCCCCNC(=S)Nc1ccc(-c2n[nH]c(=S)n2CCCCCC)cc1 = > 3.2 µg/mL
• CCCCCCNC(=S)Nc1ccc(-c2n[nH]c(=S)n2CC)cc1 = > 80 µg/mL
• C=CCn1c(COc2ccc(NC(=S)NC)cc2)n[nH]c1=S = > 400 µg/mL
• CCn1c(COc2ccc(NC(=S)NC)cc2)n[nH]c1=S = > 400 µg/mL

Data credit: ChEMBL document CHEMBL1149790
